Assay: Plasma pharmacokinetics of DHC after oral administration of pure DHC or EFY
Assay type: in vivo, Sprague-Dawley rats
Conditions: Sprague-Dawley, DHC in rat plasma, equivalent dose of 97.5 mg/kg DHC (EFY 483 mg/kg), n = 5, mean ± SD, read-out: Ke (converted)
From the text: DHC is the most abundant quaternary protoberberine-type alkaloid in EFY and has clear cardiovascular pharmacological activity. […] An Agilent 1100 system (Palo Alto, CA, USA) equipped with a vacuum degasser, a quaternary pump, and an auto-sampler were used. […] [26, 27, 28] were monitored for DHC and IS, respectively. […]
recorded-metric: k el

1. COc1cc2c(cc1OC)-c1c(C)c3ccc(OC)c(OC)c3c[n+]1CC2 [DHC, dehydrocorydaline]	2.5e-05 s⁻¹
